- Tested on: 217524-143-R1-J4-PDC spheroids with HUVEC/MSC, viability;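 note: spheroids exposed to agents for seven days before reading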
- Test Summary: Anticancer human tumor 217524-143-R1-J4-PDC patient-derived pancreatic carcinoma cell line growth inhibition [CLK]
- Condition: second compound 3.16 µM; first compound 1 µM; stronger effect = lower value
condition met if viability, T/C is below 1%. condition not met if not; exact matches included in condition not met.

stdin: Given CCc1c2c(nc3ccc(O)cc13)-c1cc3c(c(=O)n1C2)COC(=O)[C@]3(O)CC + CN1CCN(c2cc(C(=O)Nc3cc4cc(-c5cnn(C)c5)ccc4cn3)ccn2)CC1 , is recorded viability, T/C strictly lower than 1%?
stdout: condition not met

stdin: Could you do the same for C#Cc1c(F)ccc2cc(O)cc(-c3ncc4c(N5CC6CCC(C5)N6)nc(OCC56CCCN5CC(F)C6)nc4c3F)c12 (stereo not given) + CNC(=O)c1ccc(Nc2nc(OC3CCCC3)c3c(-c4ccc5nc(C)oc5c4)c[nH]c3n2)c(OC)c1 , please?
stdout: condition not met

stdin: Another: COc1c(OCCCN2CCOCC2)ccc2c3n(c(=NC(=O)c4cnc(N)nc4)nc12)CCN3 + CN1CCN(c2cc(C(=O)Nc3cc4cc(-c5cnn(C)c5)ccc4cn3)ccn2)CC1
stdout: condition met

stdin: Another compound: CCN1CCN(Cc2ccc(Nc3ncc(F)c(-c4cc(F)c5nc(C)n(C(C)C)c5c4)n3)nc2)CC1 + CN1CCN(c2cc(C(=O)Nc3cc4cc(-c5cnn(C)c5)ccc4cn3)ccn2)CC1
stdout: condition not met

stdin: Let us now turn to CC1(C)CCC(CN2CCN(c3ccc(C(=O)NS(=O)(=O)c4ccc(NCC5CCOCC5)c([N+](=O)[O-])c4)c(Oc4cnc5[nH]ccc5c4)c3)CC2)=C(c2ccc(Cl)cc2)C1 + CNC(=O)c1ccc(Nc2nc(OC3CCCC3)c3c(-c4ccc5nc(C)oc5c4)c[nH]c3n2)c(OC)c1
stdout: condition not met

stdin: Repeat with O=c1[nH]cc(F)c(=O)[nH]1 + CNC(=O)c1ccc(Nc2nc(OC3CCCC3)c3c(-c4ccc5nc(C)oc5c4)c[nH]c3n2)c(OC)c1
stdout: condition not met

stdin: Query C=C(F)C(=O)N1CCN(c2nc(OCC3CCCN3C)nc3c2CCN(c2cccc4cccc(Cl)c24)C3)CC1CC#N (stereo not given) + CNC(=O)c1ccc(Nc2nc(OC3CCCC3)c3c(-c4ccc5nc(C)oc5c4)c[nH]c3n2)c(OC)c1 next
stdout: condition not met

stdin: Moving on to the next compound: Nc1ccccc1NC(=O)c1ccc(CNC(=O)OCc2cccnc2)cc1 + CNC(=O)c1ccc(Nc2nc(OC3CCCC3)c3c(-c4ccc5nc(C)oc5c4)c[nH]c3n2)c(OC)c1
stdout: condition not met

stdin: Would you mind doing CC(Nc1ccc2c(c1)OCCn1cc(N3C(=O)OCC3C(F)F)nc1-2)C(N)=O (stereo not given) + CNC(=O)c1ccc(Nc2nc(OC3CCCC3)c3c(-c4ccc5nc(C)oc5c4)c[nH]c3n2)c(OC)c1 as well?
stdout: condition not met

stdin: // query: CCN1CCN(Cc2ccc(Nc3ncc(F)c(-c4cc(F)c5nc(C)n(C(C)C)c5c4)n3)nc2)CC1 + CNC(=O)c1ccc(Nc2nc(OC3CCCC3)c3c(-c4ccc5nc(C)oc5c4)c[nH]c3n2)c(OC)c1
stdout: condition not met

stdin: Follow-up item: COc1c(OCCCN2CCOCC2)ccc2c3n(c(=NC(=O)c4cnc(N)nc4)nc12)CCN3 + CNC(=O)c1ccc(Nc2nc(OC3CCCC3)c3c(-c4ccc5nc(C)oc5c4)c[nH]c3n2)c(OC)c1
stdout: condition not met

stdin: Let us now turn to C=CC(=O)N1CCN(c2nc(=O)n(-c3c(C)ccnc3C(C)C)c3nc(-c4c(O)cccc4F)c(F)cc23)C(C)C1 (stereo not given) + CNC(=O)c1ccc(Nc2nc(OC3CCCC3)c3c(-c4ccc5nc(C)oc5c4)c[nH]c3n2)c(OC)c1
stdout: condition not met

stdin: Moving on to C#Cc1c(F)ccc2cc(O)cc(-c3ncc4c(N5CC6CCC(C5)N6)nc(OCC56CCCN5CC(F)C6)nc4c3F)c12 (stereo not given) + CN1CCN(c2cc(C(=O)Nc3cc4cc(-c5cnn(C)c5)ccc4cn3)ccn2)CC1
stdout: condition met

stdin: Proceed to C=CC(=O)N1CCN(c2nc(=O)n(-c3c(C)ccnc3C(C)C)c3nc(-c4c(O)cccc4F)c(F)cc23)C(C)C1 (stereo not given) + CN1CCN(c2cc(C(=O)Nc3cc4cc(-c5cnn(C)c5)ccc4cn3)ccn2)CC1
stdout: condition met

stdin: // next record CC1COCCN1c1cc(C2(S(C)(=N)=O)CC2)nc(-c2ccnc3[nH]ccc23)n1 (stereo not given) + CN1CCN(c2cc(C(=O)Nc3cc4cc(-c5cnn(C)c5)ccc4cn3)ccn2)CC1
stdout: condition met

stdin: Entry to check: CCc1c2c(nc3ccc(O)cc13)-c1cc3c(c(=O)n1C2)COC(=O)[C@]3(O)CC + CNC(=O)c1ccc(Nc2nc(OC3CCCC3)c3c(-c4ccc5nc(C)oc5c4)c[nH]c3n2)c(OC)c1
stdout: condition not met

stdin: Another: O=c1[nH]cc(F)c(=O)[nH]1 + CN1CCN(c2cc(C(=O)Nc3cc4cc(-c5cnn(C)c5)ccc4cn3)ccn2)CC1
stdout: condition met

stdin: Continue with O=C(c1cc(Cc2n[nH]c(=O)c3ccccc23)ccc1F)N1CCN(C(=O)C2CC2)CC1 + CN1CCN(c2cc(C(=O)Nc3cc4cc(-c5cnn(C)c5)ccc4cn3)ccn2)CC1
stdout: condition not met
